Where do the numbers come from? From a melting point compilation (Tetko et al.; mined from patent text by program, amines drawn as free bases though some values may be those of a salt).

result.type: melting point

Recorded results for 5 molecules are shown here.
CCc1cc(C#N)sc1-c1ccc2c(c1)C(C)(C)OC(=O)N2 : 160 to 162 °C
CCCCC(=O)Nc1c(C(=O)c2ccccc2)[nH]c2cc(Cl)ccc12 : 140 to 143 °C
CCN(CC)C(=O)c1cc(C)ccc1-c1ccc(OC)cc1 : 113 to 114 °C
COc1ccc(-n2cnnc2S(C)(=O)=O)cc1 : 191 °C
CC(C)(C)OC(=O)N[C@@H](Cc1ccc(O)cc1)C(=O)N[C@H](Cc1ccccc1)C(=O)NCC(=O)OCc1ccccc1 : 169 °C

# return recorded melting point for input `CCCN(C(C)=O)c1cccc(-c2ccc3nnc(C)n3n2)c1`
145 to 149 °C

# return recorded melting point for input O=C([C@@H](Cc1ccc(Cl)cc1)NC1CCC(O)(c2ccc(F)cc2)CC1)N1CCC(Cn2cncn2)(C2CCCCC2)CC1 (stereo not given in full)
150 °C

# return recorded melting point for input `O=C(O)C(=O)c1cn(Cc2ccc(F)cc2)c2ccc(OCCc3ccc(F)cc3)cc12`
171 to 173 °C

# return recorded melting point for input `O=C1c2ccccc2C(=O)c2oc(-c3ccccc3)nc21`
> 260 °C

# return recorded melting point for input `COC(=O)OCc1cnc(C)c(OC(=O)OC)c1`
65 °C

# return recorded melting point for input CC1(C)CC(N2CCN(Cc3ccccc3)C2=O)c2cc(C#N)ccc2O1 (stereo not given)
45 to 48 °C

# return recorded melting point for input `Nc1cc(-c2c(-c3ccc(Cl)cc3)nc3cccnn23)ccn1`
252 to 253 °C

# return recorded melting point for input CCOC(=O)c1c(S(N)=O)c2ccccc2n1CC (stereo not given)
78 to 80 °C

# return recorded melting point for input CC(=O)SCC(Cc1ccccc1)C(=O)Nc1ccccc1C(=O)O (stereo not given)
121 to 122 °C

# return recorded melting point for input `Cn1cc(-c2cccc(C(F)(F)F)c2)c(=O)n1-c1cccc(Cl)c1`
130 to 131 °C

# return recorded melting point for input `CCN(CC)C(=O)C(C#N)=Cc1cc(O)c(O)c([N+](=O)[O-])c1`
156 to 160 °C

# return recorded melting point for input `CCCc1nnc(CCc2cc(OCc3ccc(OCc4nc(-c5ccccc5)oc4C)c(OC)c3)nn2-c2ccccc2)o1`
85 to 86 °C

# return recorded melting point for input CCCCCCCCCCCCCCCCCCOC1=CC(OCCCOc2ccc(C(C)(C)C)cc2)(N(CC(=O)O)CC(=O)O)CC=C1 (stereo not given)
99 to 101 °C

# return recorded melting point for input `COc1cc(COc2cc(N)c(Cl)cc2C(=O)CCCCN2CCCCCC2)cc(OC)c1`
137 to 139 °C

# return recorded melting point for input O=C(O)COc1cccc2c1CCc1sc(SC(Cc3ccccc3)c3ccccc3)nc1-2 (stereo not given)
201 to 204 °C

====

result.type: melting point

Recorded results for 5 compounds are shown here.
CC(C)CCNC(=NC#N)Nc1cccnc1 : 136 °C
Cc1cc2c(-c3ccccc3)nc(N3CCN(CC(=O)c4ccc(F)cc4)CC3)nc2s1 : 141 to 142 °C
CCCNc1nc2ccccn2c(=O)c1-c1ccc(NC2CCN(C(=O)OC(C)(C)C)C2)cc1 (centres undefined) : 187 to 190 °C
O=C1SC(=Cc2cccs2)C(=O)N1CCCCSc1cccc2nccn12 : 116 to 117 °C
CCCN(Cc1ccc(-c2ccccc2-c2nnn[nH]2)cc1)c1ncccc1C(=O)OC : 146 to 147 °C

# return recorded melting point for input CCCc1nc(Br)c(C(C)(O)C(=O)O)n1Cc1ccc(-c2ccccc2S(=O)(=O)NC(=O)NCc2ccccc2)cc1 (centres undefined)
153 °C

# return recorded melting point for input `O=C(NCc1ccc(F)cc1)c1cccnc1Oc1ccc(F)cc1`
136 to 138 °C

# return recorded melting point for input `CC(C)(Cc1ccccc1)Nc1c(NCc2cc3cc(C#N)ccc3o2)c(=O)c1=O`
233 to 235 °C

# return recorded melting point for input `CSc1nc(O)c(-c2ccccc2F)c(O)n1`
> 240 °C
